- Test system: arylamine-N-acetyltransferase (TBNAT) (Mycobacterium tuberculosis, UniProt P9WJI5)
- Sequence (P9WJI5 1-283): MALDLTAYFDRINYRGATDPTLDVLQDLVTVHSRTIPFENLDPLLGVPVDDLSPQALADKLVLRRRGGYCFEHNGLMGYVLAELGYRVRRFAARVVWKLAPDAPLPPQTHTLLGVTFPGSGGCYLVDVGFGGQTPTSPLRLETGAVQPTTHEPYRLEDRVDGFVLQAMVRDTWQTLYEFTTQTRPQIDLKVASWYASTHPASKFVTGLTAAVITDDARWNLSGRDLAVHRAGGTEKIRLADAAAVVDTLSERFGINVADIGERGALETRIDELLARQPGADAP
Experimental endpoint: pIC50
Scale explanation: pIC50 corresponds to minus log10 of a concentration expressed in moles per litre.

May I ask what pIC50 has been recorded for COc1cc(C(=O)O)c2c(c1C)OC(=O)c1c(C)cc(O)c(C=O)c1O2 [PA, psoromic acid] ?
5.06

Alright, here's another compound for you.
Reported pIC50 for NNC(=O)c1ccncc1 [INH, isoniazid] : what is it?
5.21
